Data origin: paper PMC8949129

- System: HeLa cells
- EXPERIMENT: Drug combination assay with doxorubicin (MTT, CompuSyn)
- Type: cell-based, human
- Parameters: key: CI <1 synergy, ~1 additivity, >1 antagonism
- ASSAY_SETUP: with doxorubicin, 72 h, average over drug ratios at IC50
Classify by measured CI (combination index): yes if it is equal to or exceeds 0.5, no if it is smaller.

# example entries with known answers
In [3]: df
Out[3]:
                                   compound  category_label
0  C=Cc1c(C)cc(O)c2c1CCc1c-2cc(-c2c(C)c(C=C)c3c(c2O)-c2ccc(O)c(C)c2CC3)c(O)c1C              no
1       C=Cc1cc(C)cc2c1-c1ccc(O)c(COC)c1CC2             yes
2  C=Cc1c(C)cc(O)c2c1CCc1c-2cc(-c2cc3c(c(C)c2O)CCc2c(C=C)c(C)cc(O)c2-3)c(O)c1C              no
3     CC(=O)c1c(C)cc(O)c2c1CCc1c-2ccc(O)c1C             yes

Qu. Could you tell me if the measured CI (combination index) of C=Cc1c(CO)cc(O)c2c1CCc1c-2ccc(O)c1C reaches 0.5 or more?
Ans. no

Qu. Could you tell me if the measured CI (combination index) of C#Cc1c(C)c(O)cc2c1CCc1c-2ccc(O)c1C reaches 0.5 or more?
Ans. yes

Qu. Could you tell me if the measured CI (combination index) of Cc1cc(O)c2c(c1C(O)COc1cc(-c3cc(=O)c4c(O)cc(O)cc4o3)ccc1O)CCc1c-2ccc(O)c1C (stereo not shown) reaches 0.5 or more?
Ans. no
